- MEASUREMENT DESCRIPTION: Stability of the analytes in rat plasma under different storage conditions (QC samples)
- Format: in vitro ADME
- TEST CONTEXT: rat, plasma, rat plasma, at −70 °C for 15 days, high QC concentration, n = 3
PROPERTY: remaining at 360 h (%)
Provide the reading as a plain figure in %.

// known answers, use as guide
COc1ccc(-c2coc3cc(O[C@@H]4O[C@H](CO)[C@@H](O)[C@H](O)[C@H]4O)ccc3c2=O)cc1O [Calycosin-7-glucoside, calycosin-7-glucoside] :: 102
COc1cc2c(cc1OC)[C@@H]1Cc3ccc(OC)c(OC)c3CN1CC2 [Tetrahydropalmatine, tetrahydropalmatine] :: 103
O=C(/C=C/c1ccc(O)cc1)c1ccc(O)cc1O :: 102
C[C@@]12C[C@@]3(O)O[C@@H](O1)[C@]1(COC(=O)c4ccccc4)[C@H]3C[C@@]12O[C@@H]1O[C@H](CO)[C@@H](O)[C@H](O)[C@H]1O :: 104

Next molecule, remaining at 360 h to be filled in.
Looking up COCC12CCC(OC)C34C5CC6(O)C(OC)C(O)C(O)(C5C6OC(=O)c5ccccc5)C(C(OC)C13)C4N(C)C2 (centres unmarked) , I see its remaining at 360 h listed as 105

---

Quick list: MRT last per entry.
- MEASUREMENT DESCRIPTION: Pharmacokinetic study in rats after single oral administration of GJK (UPLC-MS/MS of plasma)
- Assay type: in vivo, Sprague–Dawley rats
- TEST CONTEXT: Sprague-Dawley; rat plasma, single oral GJK 24 g/kg, n = 6, mean ± S.D.; read-out: MRT0–t (mean residence time) (converted)
# answer = value followed by unit

COc1ccc(-c2coc3cc(O[C@@H]4O[C@H](CO)[C@@H](O)[C@H](O)[C@H]4O)ccc3c2=O)cc1O [Calycosin-7-glucoside, calycosin-7-glucoside] :: 2.17 h

Item: COc1ccc(-c2coc3cc(O)ccc3c2=O)cc1 | MRT last: 12.9 h

---

- MEASUREMENT DESCRIPTION: Stability of the analytes in rat plasma under different storage conditions (QC samples)
- Format: in vitro ADME
- TEST CONTEXT: rat, plasma, rat plasma, 25 °C for 4 h, low QC concentration, n = 3
Entries and their remaining at 4 h
Only the number, expressed in %, is required.

COc1cc2c(cc1OC)[C@@H]1Cc3ccc(OC)c(OC)c3CN1CC2 [Tetrahydropalmatine, tetrahydropalmatine] :: 103
C[C@@]12C[C@@]3(O)O[C@@H](O1)[C@]1(COC(=O)c4ccccc4)[C@H]3C[C@@]12O[C@@H]1O[C@H](CO)[C@@H](O)[C@H](O)[C@H]1O :: 102
COc1ccc(-c2coc3cc(O[C@@H]4O[C@H](CO)[C@@H](O)[C@H](O)[C@H]4O)ccc3c2=O)cc1O [Calycosin-7-glucoside, calycosin-7-glucoside] :: 106
O=C(/C=C/c1ccc(O)cc1)c1ccc(O)cc1O :: 102

Attention now turns to another entry.
Item: COCC12CCC(OC)C34C5CC6(O)C(OC)C(O)C(O)(C5C6OC(=O)c5ccccc5)C(C(OC)C13)C4N(C)C2 (centres unmarked) | remaining at 4 h: 108

---

Listed below: remaining at 4 h values for each entry.
- MEASUREMENT DESCRIPTION: Stability of the analytes in rat plasma under different storage conditions (QC samples)
- Format: in vitro ADME
- TEST CONTEXT: rat, plasma, rat plasma, 25 °C for 4 h, medium QC concentration, n = 3
Supply the numeric figure in %, leaving out any unit text.

See these solved cases before continuing.
C[C@@]12C[C@@]3(O)O[C@@H](O1)[C@]1(COC(=O)c4ccccc4)[C@H]3C[C@@]12O[C@@H]1O[C@H](CO)[C@@H](O)[C@H](O)[C@H]1O [Paeoniflorin, paeoniflorin] :: 102
COc1ccc(-c2coc3cc(O[C@@H]4O[C@H](CO)[C@@H](O)[C@H](O)[C@H]4O)ccc3c2=O)cc1O [Calycosin-7-glucoside, calycosin-7-glucoside] :: 96
COc1cc2c(cc1OC)[C@@H]1Cc3ccc(OC)c(OC)c3CN1CC2 [Tetrahydropalmatine, tetrahydropalmatine] :: 101
COCC12CCC(OC)C34C5CC6(O)C(OC)C(O)C(O)(C5C6OC(=O)c5ccccc5)C(C(OC)C13)C4N(C)C2 (centres unmarked) [Benzoylhypaconine, benzoylhypaconine] :: 108

Documented remaining at 4 h of O=C(/C=C/c1ccc(O)cc1)c1ccc(O)cc1O [Isoliquiritigenin, isoliquiritigenin] : 103

---

- MEASUREMENT DESCRIPTION: Stability of the analytes in rat plasma under different storage conditions (QC samples)
- Type: in vitro ADME
- TEST CONTEXT: rat, plasma, rat plasma, at −70 °C for 15 days, medium QC concentration, n = 3
# reported remaining at 360 h; entries follow
Put down the number, then write its unit next to it.

Consider the worked cases shown below.
COCC12CCC(OC)C34C5CC6(O)C(OC)C(O)C(O)(C5C6OC(=O)c5ccccc5)C(C(OC)C13)C4N(C)C2 (centres unmarked) :: 104%
COc1ccc(-c2coc3cc(O[C@@H]4O[C@H](CO)[C@@H](O)[C@H](O)[C@H]4O)ccc3c2=O)cc1O [Calycosin-7-glucoside, calycosin-7-glucoside] :: 94.3%

Record summary for O=C(/C=C/c1ccc(O)cc1)c1ccc(O)cc1O : reported remaining at 360 h = 96.2%

Consider COc1cc2c(cc1OC)[C@@H]1Cc3ccc(OC)c(OC)c3CN1CC2 [Tetrahydropalmatine, tetrahydropalmatine] . Its measured remaining at 360 h is 103%

Given item C[C@@]12C[C@@]3(O)O[C@@H](O1)[C@]1(COC(=O)c4ccccc4)[C@H]3C[C@@]12O[C@@H]1O[C@H](CO)[C@@H](O)[C@H](O)[C@H]1O , the value recorded as its remaining at 360 h is 104%

---

Quick reference for remaining at 24 h among some compounds
- MEASUREMENT DESCRIPTION: Stability of the analytes in rat plasma under different storage conditions (QC samples)
- Assay type: in vitro ADME
- TEST CONTEXT: rat, plasma, extracted plasma QC samples in auto-sampler, 4 °C for 24 h, medium QC concentration, n = 3
Note: unit % is implicit; provide only the numeric part.

Noted for COCC12CCC(OC)C34C5CC6(O)C(OC)C(O)C(O)(C5C6OC(=O)c5ccccc5)C(C(OC)C13)C4N(C)C2 (stereo not shown) [Benzoylhypaconine, benzoylhypaconine] : its remaining at 24 h reads 104

Sure, the documented remaining at 24 h for COc1cc2c(cc1OC)[C@@H]1Cc3ccc(OC)c(OC)c3CN1CC2 [Tetrahydropalmatine, tetrahydropalmatine] is 98.4

remaining at 24 h in this record for O=C(/C=C/c1ccc(O)cc1)c1ccc(O)cc1O [Isoliquiritigenin, isoliquiritigenin] : 102

// C[C@@]12C[C@@]3(O)O[C@@H](O1)[C@]1(COC(=O)c4ccccc4)[C@H]3C[C@@]12O[C@@H]1O[C@H](CO)[C@@H](O)[C@H](O)[C@H]1O [Paeoniflorin, paeoniflorin] : remaining at 24 h value = 105

---

- MEASUREMENT DESCRIPTION: Pharmacokinetic study in rats after single oral administration of GJK (UPLC-MS/MS of plasma)
- Format: in vivo, Sprague–Dawley rats
- TEST CONTEXT: Sprague-Dawley, in vivo; rat plasma, single oral GJK 24 g/kg, n = 6, AUC0–t extrapolated to infinity, mean ± S.D.
A collection of molecules and their measured AUC(0-inf)
Numbers only; they are read as ng·h/mL.

C[C@@]12C[C@@]3(O)O[C@@H](O1)[C@]1(COC(=O)c4ccccc4)[C@H]3C[C@@]12O[C@@H]1O[C@H](CO)[C@@H](O)[C@H](O)[C@H]1O :: 1230
COc1cc2c(cc1OC)[C@@H]1Cc3ccc(OC)c(OC)c3CN1CC2 [Tetrahydropalmatine, tetrahydropalmatine] :: 184
COCC12CCC(OC)C34C5CC6(O)C(OC)C(O)C(O)(C5C6OC(=O)c5ccccc5)C(C(OC)C13)C4N(C)C2 (stereo not shown) :: 76.7

Turning to the following molecule.
Entry under test: O=C(/C=C/c1ccc(O)cc1)c1ccc(O)cc1O . Its AUC(0-inf) was 2750

---

- MEASUREMENT DESCRIPTION: Pharmacokinetic study in rats after single oral administration of GJK (UPLC-MS/MS of plasma)
- Assay type: in vivo, Sprague–Dawley rats
- TEST CONTEXT: Sprague-Dawley, in vivo; rat plasma, single oral GJK 24 g/kg, n = 6, mean ± S.D.; read-out: Cmax (maximum plasma concentration)
Below, each of the compounds is paired with its reported Cmax value.
// note: answer is a bare numeric in ng/mL

As a guide, the following entries are already answered.
O=C(/C=C/c1ccc(O)cc1)c1ccc(O)cc1O [Isoliquiritigenin, isoliquiritigenin] :: 337
COc1cc2c(cc1OC)[C@@H]1Cc3ccc(OC)c(OC)c3CN1CC2 [Tetrahydropalmatine, tetrahydropalmatine] :: 42
COCC12CCC(OC)C34C5CC6(O)C(OC)C(O)C(O)(C5C6OC(=O)c5ccccc5)C(C(OC)C13)C4N(C)C2 (stereo not shown) [Benzoylhypaconine, benzoylhypaconine] :: 35.6

Here is another compound to look at.
Recorded result, C[C@@]12C[C@@]3(O)O[C@@H](O1)[C@]1(COC(=O)c4ccccc4)[C@H]3C[C@@]12O[C@@H]1O[C@H](CO)[C@@H](O)[C@H](O)[C@H]1O [Paeoniflorin, paeoniflorin] , Cmax: 905
